For each entry below, report its cytotoxicity at 70.5 h value.
- Test Details: Human HepG2 cell viability assay in 384 well format
- Format: toxicity, cell-based
- Design: dose 125 nL, time 70.5 hour; concentration not given beside the values
- Recorded Conditions: HepG2 cells, read-out: Inhibition
One number for each entry, in %.

Some entries whose results are on file:
Compound	Readout Label	Reported
O=C(NC1CC1)c1ccc2ccc(N3CCN(CC4CC4)CC3)n2c1	cytotoxicity at 70.5 h	6.77
CNC(=O)c1cc(C)nc(C2(C)CCCN2c2cc(C)ncn2)n1 (configuration not stated)	cytotoxicity at 70.5 h	-6.05

Go through the items and report each one's cytotoxicity at 70.5 h.
1. CC(C)COCC1CN(Cc2ccc3c(c2)OCO3)Cc2ncn(C)c21 (configuration not stated)
2. c1cnc(N2CCC(c3n[nH]c4ncccc34)C2)nc1 (configuration not stated)

[45.7, -7.93]
